CONDITIONS: in acetone, 283.15 K
ENDPOINT: solubility (mole fraction)

> print(dat)
                            smiles.notation                    endpoint  reported
1  CC(C)[C@H](C)[C@@H](O)[C@H](O)[C@@H](C)[C@H]1CC[C@H]2[C@@H]3COC(=O)[C@H]4C[C@H](O)[C@H](O)C[C@]4(C)[C@H]3CC[C@]12C  solubility (mole fraction)     0.106

---

CONDITIONS: in n-butanol, 318.15 K
ENDPOINT: solubility (mole fraction)

> print(dat)
                            smiles.notation  reported
1  CC(C)[C@H](C)[C@@H](O)[C@H](O)[C@@H](C)[C@H]1CC[C@H]2[C@@H]3COC(=O)[C@H]4C[C@H](O)[C@H](O)C[C@]4(C)[C@H]3CC[C@]12C   0.00137

---

CONDITIONS: in THF, 293.15 K
ENDPOINT: solubility (mole fraction)

> print(dat)
                            smiles.notation                    endpoint  reported
1  CC(C)[C@H](C)[C@@H](O)[C@H](O)[C@@H](C)[C@H]1CC[C@H]2[C@@H]3COC(=O)[C@H]4C[C@H](O)[C@H](O)C[C@]4(C)[C@H]3CC[C@]12C  solubility (mole fraction)     0.239

---

CONDITIONS: in THF, 308.15 K
ENDPOINT: solubility (mole fraction)

> print(dat)
                            smiles.notation                    endpoint  reported
1  CC(C)[C@H](C)[C@@H](O)[C@H](O)[C@@H](C)[C@H]1CC[C@H]2[C@@H]3COC(=O)[C@H]4C[C@H](O)[C@H](O)C[C@]4(C)[C@H]3CC[C@]12C  solubility (mole fraction)     0.328

---

CONDITIONS: in methanol, 278.15 K
ENDPOINT: solubility (mole fraction)

> print(dat)
                            smiles.notation  reported
1  CC(C)[C@H](C)[C@@H](O)[C@H](O)[C@@H](C)[C@H]1CC[C@H]2[C@@H]3COC(=O)[C@H]4C[C@H](O)[C@H](O)C[C@]4(C)[C@H]3CC[C@]12C    0.0321

---

CONDITIONS: in n-hexane, 313.15 K
ENDPOINT: solubility (mole fraction)

> print(dat)
                            smiles.notation  reported
1  CC(C)[C@H](C)[C@@H](O)[C@H](O)[C@@H](C)[C@H]1CC[C@H]2[C@@H]3COC(=O)[C@H]4C[C@H](O)[C@H](O)C[C@]4(C)[C@H]3CC[C@]12C   0.00044

---

CONDITIONS: in acetone, 293.15 K
ENDPOINT: solubility (mole fraction)

> print(dat)
                            smiles.notation                    endpoint  reported
1  CC(C)[C@H](C)[C@@H](O)[C@H](O)[C@@H](C)[C@H]1CC[C@H]2[C@@H]3COC(=O)[C@H]4C[C@H](O)[C@H](O)C[C@]4(C)[C@H]3CC[C@]12C  solubility (mole fraction)     0.145
